Test system: Dd2
assay-notes: qHTS profiling for inhibitors of Plasmodium falciparum proliferation (AID 504749);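 also: 0% = DMSO vehicle and full inhibition = artemisinin control; nearly all actives have a fitted effect of over 60% in size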
test-settings: P. falciparum in erythrocytes, SYBR Green DNA, 72 h; series mostly up to 28.7 µM
Results filed as inconclusive are left out. The source made the active and inactive calls. Calls follow the shape of the dose curve; as a rule, active = well fitted inhibition curve with a large enough effect; inconclusive = small, poorly fitted or top-dose-only effect; inactive = flat fitted curve, though single readings scatter.
# valid calls are 1 (active), 0 (inactive); nothing else

Task item: What did the test return for CCOc1ccccc1C(N)=O ?
Reply: 0

* * *

assay-notes: qHTS Assay for Lipid Storage Modulators (AID 1519); also: % is scaled to controls: 0 for no effect and ±100 for the full control effect
test-settings: Drosophila S3 cells, BODIPY lipid droplet/cell ratio, laser cytometry; at 25.7 µM (top of the series); cells loaded with oleic acid
Inconclusive results are not listed.
Reported activity change, negative = inhibition is given for each of the following compounds.
Reply numerically in %, unit not repeated.

Task item: Param item = CCCN(CCC)S(=O)(=O)c1ccc(C(=O)O)cc1 ; retrieve measured activity change, negative = inhibition.
Reply: -2.1

Task item: Param item = O=C1C(O)=C(O)C(=O)C(O)=C1O ; retrieve measured activity change, negative = inhibition.
Reply: -0.531

Task item: Param item = Cc1c(-c2ccccc2)oc2c(C(=O)OCCN3CCCCC3)cccc2c1=O ; retrieve measured activity change, negative = inhibition.
Reply: 1.6

Task item: Param item = COc1ccc(C(Cl)=C(c2ccc(OC)cc2)c2ccc(OC)cc2)cc1 ; retrieve measured activity change, negative = inhibition.
Reply: 1.46

Task item: Param item = CCc1cc(Cl)c(OC)c(C(=O)NC[C@@H]2CCCN2CC)c1O ; retrieve measured activity change, negative = inhibition.
Reply: -7.25

New cases:
Task item: Param item = CCN(CC)CCNC(=O)c1cc(Br)c(N)cc1OC ; retrieve measured activity change, negative = inhibition.
Reply: -3.04

Task item: Param item = O=C(O)CCC(=O)Nc1ccc(S(=O)(=O)Nc2nccs2)cc1 ; retrieve measured activity change, negative = inhibition.
Reply: 0.767

Task item: Param item = CC[C@H](c1ccc(O)cc1)[C@@H](CC)c1ccc(O)cc1 ; retrieve measured activity change, negative = inhibition.
Reply: -3.44

Task item: Param item = c1ccc(CC2=NCCN2)cc1 ; retrieve measured activity change, negative = inhibition.
Reply: 0.322

Task item: Param item = CCOC(=O)Nc1ccc2c(c1)N(C(=O)CCN1CCOCC1)c1ccccc1S2 ; retrieve measured activity change, negative = inhibition.
Reply: -4.54

Task item: Param item = CCCc1ncc(C[n+]2ccccc2C)c(N)n1 ; retrieve measured activity change, negative = inhibition.
Reply: -1.66

Task item: Param item = COc1ccc(C(=O)c2ccccc2)c(O)c1 ; retrieve measured activity change, negative = inhibition.
Reply: -0.0822

* * *

assay-notes: qHTS of pediatric cancer cell lines to identify multiple opportunities for drug repurposing: Primary screen for MG 63 (6-TG R) cells (AID 1347105); also: nearly all actives have a fitted effect of over 50% in size
test-settings: MG 63 (6-TG R) viability, CellTiter-Glo, 48 h; series mostly up to 46 µM
Results filed as inconclusive are left out. Activity calls are given as the source filed them. Calls come from the whole dose curve; as a rule, active = well fitted cell-killing curve with a large enough effect; inconclusive = small, poorly fitted or top-dose-only effect; inactive = no such curve, though single readings can be large or run the other way.
# valid calls are t (active), f (inactive); nothing else

Some solved cases for reference:
Task item: What did the test return for COc1ccc(CCN(C)CCCN2CCc3cc(OC)c(OC)cc3CC2=O)cc1OC ?
Reply: f

Task item: What did the test return for Oc1ccc(Cl)cc1Cc1cc(Cl)ccc1O ?
Reply: t

Task item: What did the test return for CC1(C)OC[C@@H]2O[C@@]3(C(=O)O)OC(C)(C)O[C@H]3[C@@H]2O1 ?
Reply: f

Task item: What did the test return for CCN(CC)CCOc1ccccc1C(=O)CCc1ccccc1 ?
Reply: f

Task item: What did the test return for CCNC(=O)/C=C/c1cccc(Br)c1 ?
Reply: f

Attention now shifts to the item below.
Task item: What did the test return for NS(=O)(=O)Cc1noc2ccccc12 ?
Reply: f
